Molecular target: Human BCMA (human) (UniProt Q02223)
Assay: SPR, IgG on chip, huBCMA analyte
# koff annotations
Respond with a number, then the unit of measure.

binder | koff
COMBO_Rd4_6nM_C09 (antibody, V domains shown, IgG) VH: EVQLLESGGGLVQPGGSLRLSCAASGFTFSSYPMSWVRQAPGKGLEWVSAIFASGGSTYYADSVKGRFTISRDNSKNTLYLQMNSLRAEDTAVYYCARYWPMDSWGQGTLVTVSS VL: EIVLTQSPGTLSLSPGERATLSCRASQSVSAQYLAWYQQKPGQAPRLLMYDASIRATGIPDRFSGSGSGTDFTLTISRLEPEDFAVYYCQQYQAWPLTFGQGTKVEIK | 0.000143 s⁻¹
COMBO_Rd4_0.6nM_C23 (antibody, V domains shown, IgG) VH: EVQLLESGGGLVQPGGSLRLSCAASGFTFSSYPMSWVRQAPGKGLEWVSALFGSGGSTYYADSVKGRFTISRDNSKNTLYLQMNSLRAEDTAVYYCARYWPMDSWGQGTLVTVSS VL: EIVLTQSPGTLSLSPGERATLSCRPRQSVSSSYLAWYQQKPGQAPRLLMYDASIRATGIPDRFSGSGSGTDFTLTISRLEPEDFAVYYCQQYQDWPLTFGQGTKVEIK | 0.00021 s⁻¹
A02_Rd4_0.6nM_C03 (antibody, V domains shown, IgG) VH: EVQLLESGGGLVQPGGSLRLSCAASGFTFSSYAMNWVRQAPGKGLEWVSAISDSGGSKWYADSVKGRFTISRDNSKNTLYLQMNSLRAEDTAVYYCARYWPMSLWGQGTLVTVSS VL: EIVLTQSPGTLSLSPGERATLSCRASQSVSSSYLAWYQQKPGQAPRLLMYDASIRATGIPDRFSGSGSGTDFTLTISRLEPEDFAVYYCQQYFTWPLTFGQGTKVEIK | 0.000182 s⁻¹

Asked: koff for COMBO_Rd4_6nM_C22 (antibody, V domains shown, IgG) VH: EVQLLESGGGLVQPGGSLRLSCAASGFTFSSYAMNWVRQAPGKGLEWVSACLDSGGSTYYADSVKGRFTISRDNSKNTLYLQMNSLRAEDTAVYYCARYWPMDSWGQGTLVTVSS VL: EIVLTQSPGTLSLSPGERATLSCRASQSVSSSYLAWYQQKPGQAPRLLMYDASIRATGIPDRFSGSGSGTDFTLTISRLEPEDFAVYYCQQYQGWPLTFGQGTKVEIK ?
Given back: 0.000775 s⁻¹

Asked: koff for C01_Rd4_0.6nM_C27 (antibody, V domains shown, IgG) VH: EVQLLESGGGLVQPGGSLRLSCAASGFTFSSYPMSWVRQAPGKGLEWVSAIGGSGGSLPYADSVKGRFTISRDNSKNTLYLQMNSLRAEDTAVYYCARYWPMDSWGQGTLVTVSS VL: EIVLTQSPGTLSLSPGERATLSCRASQSVSSTYLAWYQQKPGQAPRLLIYDASSRAPGIPDRFSGSGSGTDFTLTISRLEPEDFAVYYCQQYSRWPLTFGQGTKVEIK ?
Given back: 0.00374 s⁻¹

Asked: koff for A02_Rd4_0.6nM_C06 (antibody, V domains shown, IgG) VH: EVQLLESGGGLVQPGGSLRLSCAASGFTFSSYAMNWVRQAPGKGLEWVSAISDSGGSAWYADSVKGRFTISRDNSKNTLYLQMNSLRAEDTAVYYCARYWPMSLWGQGTLVTVSS VL: EIVLTQSPGTLSLSPGERATLSCRASQSVSVLYLAWYQQKPGQAPRLLMYDASIRATGIPDRFSGSGSGTDFTLTISRLEPEDFAVYYCQQYQRWPLTFGQGTKVEIK ?
Given back: 7.37e-05 s⁻¹

Recorded values, source patent US20190241669A1.
